Molecular target: T1, human nectin-4 protein expressed on the surface of cells (human, UniProt Q96NY8 32-510)
T1 sequence: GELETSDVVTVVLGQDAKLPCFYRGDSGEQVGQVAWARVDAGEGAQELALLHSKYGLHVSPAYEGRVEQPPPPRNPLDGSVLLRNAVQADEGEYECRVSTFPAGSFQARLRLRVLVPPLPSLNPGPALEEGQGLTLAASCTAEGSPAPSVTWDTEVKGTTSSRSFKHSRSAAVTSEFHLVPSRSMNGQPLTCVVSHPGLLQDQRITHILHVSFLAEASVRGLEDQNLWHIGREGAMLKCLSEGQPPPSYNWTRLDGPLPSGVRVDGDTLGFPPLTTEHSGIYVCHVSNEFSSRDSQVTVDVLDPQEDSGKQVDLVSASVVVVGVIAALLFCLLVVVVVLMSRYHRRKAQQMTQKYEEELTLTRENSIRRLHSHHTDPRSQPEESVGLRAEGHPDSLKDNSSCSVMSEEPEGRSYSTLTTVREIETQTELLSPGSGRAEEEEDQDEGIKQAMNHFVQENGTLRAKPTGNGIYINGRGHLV
Experiment: cell-based or functional assay
QUANTITY NAME: IC50, in vitro potency, HEK Cells + Nectin-4 (nM)
Report only the number, with the unit nM understood.

Use the examples below as a reference point.
INSERT INTO results (binder, units_symbol, endpoint_value) VALUES
  ('Nectin-4 3C12H/3C12L (recombinant chimeric antibody) (antibody, V domains shown) VH: QVQLKQSGPGLVQPSQSLSITCTVSGFSLTTYGVHWVRQSPGKGLEWLGVIWSGGNTDYNAAFISRLSISKDNSKSQVFFKMNSLQADDTAIYYCARMTHWYFDVWGTGTTVTVSS VL: DIVMTQSQKFMSTTVGDRVSITCKASQNVVTAVAWYQQKPGQSPKLLIYSASNRYTGVPDRFTGSGSGTDFTLTISYMQSEDLADYFCQQYSSYPLTFGAGTKLELK', 'nM', 0.919),
  ('Nectin-4 5D9H/5D9L (recombinant chimeric antibody) (antibody, V domains shown, also called Nectin-4 5D9 chimeric mAb) VH: QVQLKQSGPGLVQPSQSLSITCTVSGFSLTNYGVHWVRQSPGKGLEWLGVIWSGGSTDYNAAFVSRLSISRDNSKSQVFFKMNSLQADDTAIYYCARSGKWYYFDYWGQGTTLTVSS VL: DIQMTQSPASLSVSVGETVTITCRASENIYSNLAWYQQKQGKSPQLLVYAATNLADGVPSRFSGSGSGTQYSLKINSLQSEDFGSYYCQHFWGTPTFGGGTKLEIK', 'nM', 0.446);

Given Nectin-4 12E11H/12E11L (recombinant chimeric antibody) (antibody, V domains shown, also called parental 12E11 clone) VH: QVQLKQSGPGLVQPSQSLSITCTVSGFSLTTYGVHWVRQSPGKGLEWLGVIWSGGSTDCNGAFISRLSIIKDNSKSQVFFKMNSLQADDTAIYYCARMTHWYFDVWGTGTTVTVSS VL: DIVMTQSQKFMSTTVGDRVSITCKASQNVNTAVAWYQQKPGQSPKLLIYSASYRYTGVPDRFTGSGSGTDFTLTISNMQSEDLADYFCQQYSNYPLTFGAGTKLELK , state its recorded IC50, in vitro potency, HEK Cells + Nectin-4.
0.987
